The reader will find reported k2 values listed item by item below.
Biological target: T1, Caspase-3 (UniProt P42574)
T1 sequence (looked up): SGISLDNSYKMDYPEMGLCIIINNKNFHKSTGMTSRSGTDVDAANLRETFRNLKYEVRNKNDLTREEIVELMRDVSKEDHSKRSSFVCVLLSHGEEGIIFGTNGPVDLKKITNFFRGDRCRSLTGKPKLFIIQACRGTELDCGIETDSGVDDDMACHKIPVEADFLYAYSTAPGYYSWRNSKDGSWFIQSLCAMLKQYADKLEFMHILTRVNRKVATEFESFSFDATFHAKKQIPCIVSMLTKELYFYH
Experiment: cell-based or functional assay
Numbered stars: 1 amine (or outer) side, 2 acyl side, 3 side chain; on linkers, the order of the positions; unused ones are H or OH. Square brackets hold non-standard residues; d marks the D form. * marks the point of attachment. CH═CH‑CON(CH2Ph)2 = O=C(/C=C/*)N(Cc1ccccc1)Cc1ccccc1; CH═CH‑CON(CH3)CH2CH2Ph = CN(CCc1ccccc1)C(=O)/C=C/*; AAsp = aza-Asp, O=C(N(CC(=O)[*:3])N[*:1])[*:2]; CH═CH‑CON(CH3)CH2Ph = CN(Cc1ccccc1)C(=O)/C=C/*; Cbz = O=C(OCc1ccccc1)*

binder	k2, M⁻¹ s⁻¹
Cbz-IET[AAsp]-{CH═CH‑CON(CH2Ph)2} (SMILES CC[C@H](C)[C@H](NC(=O)OCc1ccccc1)C(=O)N[C@@H](CCC(=O)O)C(=O)N[C@H](C(=O)NN(CC(=O)O)C(=O)/C=C/C(=O)N(Cc1ccccc1)Cc1ccccc1)[C@@H](C)O) [Cbz-Ile-Glu-Thr-AAsp-CH═CH-CON(CH2Ph)2]	9570
Cbz-IET[AAsp]-{CH═CH‑CON(CH3)CH2Ph} (SMILES CC[C@H](C)[C@H](NC(=O)OCc1ccccc1)C(=O)N[C@@H](CCC(=O)O)C(=O)N[C@H](C(=O)NN(CC(=O)O)C(=O)/C=C/C(=O)N(C)Cc1ccccc1)[C@@H](C)O) [Cbz-Ile-Glu-Thr-AAsp-CH═CH-CON(CH3)CH2Ph]	6000
Cbz-IET[AAsp]-{CH═CH‑CON(CH3)CH2CH2Ph} (SMILES CC[C@H](C)[C@H](NC(=O)OCc1ccccc1)C(=O)N[C@@H](CCC(=O)O)C(=O)N[C@H](C(=O)NN(CC(=O)O)C(=O)/C=C/C(=O)N(C)CCc1ccccc1)[C@@H](C)O) [Cbz-Ile-Glu-Thr-AAsp-CH═CH-CON(CH3)CH2CH2Ph]	5480
Cbz-IET[AAsp]-{CH═CH‑CONHPh} [Cbz-Ile-Glu-Thr-AAsp-CH═CH-CONHPh]	7030
